Tested on: HepG2 cells
Assay: in vitro
Type: cell-based
Details: HepG2 or HepG2.117 cells, ATPlite, 3-days incubation (not marked with *), mean value; read-out: CC50 (μM, mean value)
OBSERVABLE: CC50

{"COMPOUND": "CNC(=O)c1ccc(-n2c(NC(C)C)nc3c(c2=O)C[C@@H](C)N(C(=O)c2ccc(Cl)c(C(F)(F)F)c2)C3)c(OC)c1 (single isomer, unassigned) [Compound C643b]", "CC50": "> 50 µM"}

Let me check: CNC(=O)c1ccc(-n2c(NC(C)C)nc3c(c2=O)C[C@@H](C)N(C(=O)c2ccc(Cl)c(C(F)(F)F)c2)C3)c(C2CC2)c1 (single isomer, unassigned) [Compound C661a] , system HepG2 cells, measured CC50 is > 50 µM

Let me check: CNC(=O)c1ccc(-n2c(NC(C)C)nc3c(c2=O)C[C@@H](C)N(C(=O)c2ccc(Cl)c(C(F)(F)F)c2)C3)c(C(F)F)c1 (single isomer, unassigned) [Compound C669b] , system HepG2 cells, measured CC50 is > 50 µM
